# MEASUREMENT DESCRIPTION: chemical genetic growth profiling, strain panel (AID 1159580);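 also: tested at 20 µM; growth read once vehicle control cultures reached saturation at 30 °C; 1 = growth at the plate median or of vehicle wells; lower values mean less growth of the strain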
# STUDY CONDITIONS: S. cerevisiae deletion strains, growth OD, locus YPR135W, strain CTF4
Screen size: about 5,500 compounds; about 2,000 (36%) were called active. Inconclusive results (about 18%) are left out. Rule as the data show it: active = normalized growth mostly below about 0.91 (no sharp cut-off); inconclusive = no clear call, values can overlap the other calls; inactive = mostly above about 0.92. The list shows a part of the results.
Mark one answer only. Choices: active, inactive

Cc1nc(-c2nnc(Sc3ccc(C(F)(F)F)cc3[N+](=O)[O-])n2C)cs1: inactive
CSC(=CC(=O)c1ccc(Cl)cc1)SC: active
Cc1cc(C)cc(NC(=S)N2CCN(c3ncc(C(F)(F)F)cc3Cl)CC2)c1: inactive
Cc1csc2ccc(Cl)cc12: inactive

--- query ---
(Q) I would be grateful if you could indicate the recorded call for CS/C(N)=N\N=C/c1c(F)cccc1Cl .
(A) inactive

###

# MEASUREMENT DESCRIPTION: chemical genetic growth profiling, strain panel (AID 1159580)
# STUDY CONDITIONS: S. cerevisiae deletion strains, growth OD, locus YDR069C, strain doa4, hits give low values
Out of some 5,500 compounds screened, about 2,000 (36%) were called active. Inconclusive results (about 18%) are left out. The list shows a part of the results.
ASSAY ENDPOINT: normalized growth
Respond numerically, and do not add a unit to the figure.

In the examples that follow, each entry is paired with its recorded normalized growth.
Cc1ccnc(NS(=O)(=O)c2ccc(N)cc2)n1: 1.02
COc1cccc2c1C(=O)c1c(O)c3c(c(O)c1C2=O)C[C@@](O)(C(C)=O)C[C@@H]3O[C@H]1C[C@H](N)[C@H](O)[C@H](C)O1: 0.922
N=C(N)c1ccc(OCCCCCOc2ccc(C(=N)N)cc2)cc1: 1

Field normalized growth (entry CC(C)(Sc1cc(C(C)(C)C)c(O)c(C(C)(C)C)c1)Sc1cc(C(C)(C)C)c(O)c(C(C)(C)C)c1 ) reads 0.999

Field normalized growth (entry COc1cc(N)c(Cl)cc1C(=O)NC1CCN(Cc2ccccc2)CC1 ) reads 0.992

Field normalized growth (entry Cc1cc(-n2c(=O)[nH]c(=O)n(C)c2=O)ccc1Oc1ccc(SC(F)(F)F)cc1 ) reads 0.941

###

# MEASUREMENT DESCRIPTION: chemical genetic growth profiling, strain panel (AID 1159580)
# STUDY CONDITIONS: S. cerevisiae deletion strains, growth OD, locus YHR129C, strain ARP1
Hit rate of the full screen: of about 5,500 compounds, about 2,000 (36%) were called active. Inconclusive results (about 18%) are left out. No stated cut-off is given here; in the data, active means normalized growth mostly below about 0.91 (no sharp cut-off); inconclusive means no clear call, values can overlap the other calls; inactive means mostly above about 0.92. Some of the results follow.
Mark one answer only. Choices: TRUE (active), FALSE (inactive)

(Q) I would be grateful if you could indicate the recorded call for Nc1ccc(S(=O)(=O)c2ccc(N)cc2)cc1 .
(A) FALSE

###

# MEASUREMENT DESCRIPTION: chemical genetic growth profiling, strain panel (AID 1159580)
# STUDY CONDITIONS: S. cerevisiae deletion strains, growth OD, locus YDR477W, strain SNF1, hits give low values
The campaign covered roughly 5,500 compounds. About 2,000 (36%) were called active. About 18% were inconclusive and are not listed. Some of the results follow.
The entries below come with measured normalized growth values attached.

In the examples that follow, each entry is paired with its recorded normalized growth.
O=C(NCC(c1ccccc1)c1c[nH]c2ccccc12)c1ccc(C(F)(F)F)cc1 (stereo not given): 0.98 (inactive)
CSc1n[nH]c(-c2cc(C(F)(F)F)cc(C(F)(F)F)c2)n1: 0.895 (inactive)
O=C(Nc1ccccc1Sc1ccc([N+](=O)[O-])cc1[N+](=O)[O-])C(Cl)(Cl)Cl: 0.977 (inactive)
Fc1cccc(Cl)c1CSc1n[nH]c(-c2cc(C(F)(F)F)cc(C(F)(F)F)c2)n1: 0.891 (inactive)

Would you kindly look at the next entry?
Field normalized growth (entry Nc1ccccc1C(=O)N/N=C\c1cc(Br)ccc1O ) reads 0.961 (inactive)

###

# MEASUREMENT DESCRIPTION: chemical genetic growth profiling, strain panel (AID 1159580)
# STUDY CONDITIONS: S. cerevisiae deletion strains, growth OD, locus YER155C, strain BEM2, hits give low values
About 2,000 (36%) of roughly 5,500 compounds were called active. Inconclusive results (about 18%) are left out. Some of the results follow.
ASSAY ENDPOINT: normalized growth

Cc1cc(O)c2c(c1)Cc1cccc(O)c1C2=O: 1.02 (inactive)
CC(=O)O[C@H]1CC[C@@]2(C)C(CC[C@]3(C)C2C(=O)C=C2C4[C@@H](C)[C@H](C)CC[C@]4(C(=O)O)CC[C@]23C)C1(C)C (some centres undefined): 1.01 (inactive)
C/C=C1\[C@H]2C=C(C)C[C@]1(N)c1ccc(=O)[nH]c1C2: 1 (inactive)

Would you kindly look at the next entry?
Field normalized growth (entry C[C@@H]1OC(O[C@H]2[C@H](O)[C@@H](O)[C@H](OC[C@H]3O[C@@H](OC(=O)[C@]45CCC(C)(C)CC4C4=CCC6[C@@]7(C)CC[C@H](OC8OC[C@H](O)[C@H](O)[C@H]8OC8O[C@@H](C)[C@H](O)[C@@H](O)[C@H]8O)[C@@](C)(CO)C7CC[C@@]6(C)[C@]4(C)CC5)[C@H](O)[C@@H](O)[C@@H]3O)O[C@@H]2CO)[C@H](O)[C@H](O)[C@H]1O (some centres undefined) ) reads 0.989 (inactive)

###

# MEASUREMENT DESCRIPTION: chemical genetic growth profiling, strain panel (AID 1159580);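 also: tested at 20 µM; growth read once vehicle control cultures reached saturation at 30 °C; 1 = growth at the plate median or of vehicle wells; lower values mean less growth of the strain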
# STUDY CONDITIONS: S. cerevisiae deletion strains, growth OD, locus YNL298W, strain CLA4
In all, about 5,500 compounds went through this assay and about 2,000 (36%) were called active. Roughly 18% stayed inconclusive and do not appear here. Rule as the data show it: active = normalized growth mostly below about 0.91 (no sharp cut-off); inconclusive = no clear call, values can overlap the other calls; inactive = mostly above about 0.92. The list shows a part of the results.
Mark one answer only. Choices: active, inactive

Cc1cc(C(C)(C)C)c(O)c(C(C)(C)C)c1: inactive

(Q) I would be grateful if you could indicate the recorded call for C[C@@H]1CC[C@H]2[C@@H](C)C(O)O[C@@H]3O[C@@]4(C)CC[C@@H]1[C@]32OO4 (stereo not given in full) .
(A) active

(Q) I would be grateful if you could indicate the recorded call for CCCCCCCCCCCC[C@H](C(=O)O)[C@@H](C)C(=O)O .
(A) inactive

(Q) I would be grateful if you could indicate the recorded call for NC12CC3CC(CC(C3)C1)C2 .
(A) inactive

(Q) I would be grateful if you could indicate the recorded call for CC(C)(Sc1cc(C(C)(C)C)c(O)c(C(C)(C)C)c1)Sc1cc(C(C)(C)C)c(O)c(C(C)(C)C)c1 .
(A) inactive

###

# MEASUREMENT DESCRIPTION: chemical genetic growth profiling, strain panel (AID 1159580);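 also: tested at 20 µM; growth read once vehicle control cultures reached saturation at 30 °C; 1 = growth at the plate median or of vehicle wells; lower values mean less growth of the strain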
# STUDY CONDITIONS: S. cerevisiae deletion strains, growth OD, locus YER016W, strain bim1, hits give low values
About 2,000 (36%) of roughly 5,500 compounds were called active. About 18% were inconclusive and are not listed. The list shows a part of the results.
ASSAY ENDPOINT: normalized growth
Respond numerically, and do not add a unit to the figure.

In the examples that follow, each entry is paired with its recorded normalized growth.
Cc1ccc(N=CN(C)C=Nc2ccc(C)cc2C)c(C)c1: 0.975
C[C@@H]1CC[C@]2(C(=O)O)CC[C@]3(C)C(=CCC4[C@@]5(C)CC[C@H](O)C(C)(C)C5CC[C@]43C)C2[C@H]1C (stereo partly specified): 0.999
O=C(CNC(=O)c1ccc(Cl)cc1)NO: 1.02

Field normalized growth (entry C/C=C(/C)C(=O)O[C@@H]1[C@H](OC(C)=O)[C@@]2(CO)C(CC1(C)C)C1=CCC3[C@@]4(C)CC[C@H](O[C@@H]5O[C@H](C(=O)O)[C@@H](O[C@@H]6O[C@H](CO)[C@@H](O)[C@H](O)[C@H]6O)[C@H](O)[C@H]5O[C@@H]5O[C@H](CO)[C@@H](O)[C@H](O)[C@H]5O)[C@](C)(CO)C4CC[C@@]3(C)[C@]1(C)C[C@H]2O (stereo partly specified) ) reads 0.991

Field normalized growth (entry CC(C)CCCC1(C)C=Cc2c(O)c3c(c(CCC(C)C)c2O1)OC12C(CC4CC1C(C)(C)OC2(CCC(C)C(=O)O)C4O)C3=O (stereo unspecified) ) reads 0.99

Field normalized growth (entry CC(CC(=O)C1OC1(C)C)C1C(=O)CC2(C)C3=CCC4C(C)(C)C(OC5OCC(O)C(O)C5O)CCC45CC35C(O)CC12C (stereo unspecified) ) reads 1.02

###

# MEASUREMENT DESCRIPTION: chemical genetic growth profiling, strain panel (AID 1159580);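 also: tested at 20 µM; growth read once vehicle control cultures reached saturation at 30 °C; 1 = growth at the plate median or of vehicle wells; lower values mean less growth of the strain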
# STUDY CONDITIONS: S. cerevisiae deletion strains, growth OD, locus YNL183C, strain NPR1, hits give low values
The campaign covered roughly 5,500 compounds. About 2,000 (36%) were called active. Inconclusive results (about 18%) are left out. Some of the results follow.
So basically: is normalized growth under 0.9? Then Criterion met. Not under? Then Criterion not met.

Some solved cases for reference:
C=CCc1c(CCC)nc(-c2ccccn2)[nH]c1=O: Criterion met
Cc1csc(NC(=O)Nc2ccc(C(F)(F)F)cc2)c1Cl: Criterion met
CCCc1nc(-c2ccccn2)[nH]c(=O)c1CC1CC1: Criterion not met
C/C=C(/C)C(=O)O[C@H]1CC[C@@]2(C)[C@@H]3CC[C@H]4[C@]5(O)C[C@H](O)[C@@]6(O)[C@@H](CN7C[C@@H](C)CC[C@H]7[C@@]6(C)O)[C@]5(O)C[C@@]42O[C@]13O: Criterion not met

--- query ---
(Q) Quick check: does Cc1ccc(C)c(CSc2nc(C3CCCCC3)c(C#N)c(=O)[nH]2)c1 have normalized growth under 0.9?
(A) Criterion not met
